- experiment summary: enhancers of HDL lipid transfer via mSR-BI – ldlA[mSR-BI] CHO cells, DiI fluorescence, primary screen (AID 504775);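 further: 0% = median plate neutral-control signal and 100% = twice that signal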
- condition description: DiI-HDL uptake fluorescence, 3 h, at 12.5 µM, hits give high values, 100 = double the neutral-control signal
About 310 (0.097%) of roughly 320,000 compounds were called active. This is one part of a sample in which actives are shown more often than they occur.
Can you tell me activation for the items I'm about to list?
// units = %; emit number, no label

Measured activation, "O=C(Nc1c(Br)cc2c(c1Br)Cc1cc([N+](=O)[O-])ccc1-2)C(Cl)Cl" : -60.9

Measured activation, O=C1C2C3C=CC(C3)C2C(=O)N1c1ncc([N+](=O)[O-])s1 (stereo unspecified) : 8.82

Measured activation, "CCN1C[C@@H]2[C@@H]3C(=O)N(C)C(=O)[C@@H]3[C@](C)(C1=O)N2C(=O)c1ccccc1" : -27.8

Measured activation, COC1=CC(=O)OC(c2ccc(OC)cc2)C1 (stereo unspecified) : 14.1

Measured activation, O=C1NC(c2ccccc2)Cc2ccncc21 (stereo unspecified) : 37.2

Measured activation, "CC(C)(C)C(=O)Nc1cccc(-c2ccc[nH]2)n1" : 5.41

###

- experiment summary: enhancers of HDL lipid transfer via mSR-BI – ldlA[mSR-BI] CHO cells, DiI fluorescence, primary screen (AID 504775);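 further: 0% = median plate neutral-control signal and 100% = twice that signal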
- condition description: DiI-HDL uptake fluorescence, 3 h, at 12.5 µM, hits give high values, 100 = double the neutral-control signal
About 310 (0.097%) of roughly 320,000 compounds were called active. This excerpt belongs to a sample that is enriched for actives.
assay metric: activation (%)
// units = %; emit number, no label

Measured activation, "O=S(=O)(Cc1ccc(Cl)cc1Cl)c1ccc(Cl)cc1" : -15.8

Measured activation, COc1ccc(C2C(C(C)=O)=C(O)C(=O)N2Cc2cccnc2)cc1 (centres undefined) : 30

Measured activation, COc1cc2c(cc1OC)C1C(=O)c3cc(OS(C)(=O)=O)c(OC)cc3C1N(C)C2=O (centres undefined) : 1.01

Measured activation, "COc1cccc(/C=N/Nc2ccc(S(=O)(=O)Nc3ccccc3C(=O)O)cc2[N+](=O)[O-])c1O" : 4.5

Measured activation, COc1ccc(CCNC(=O)c2ccc(NC(=O)CC3SC(N4CCCCC4)=NC3=O)cc2)cc1OC (centres undefined) : -66.6

Measured activation, "CC(C)[C@@H](C(=O)OCC(=O)c1ccc2c(c1)NC(=O)CO2)N1C(=O)c2ccccc2C1=O" : 1.12

Measured activation, CCOc1cc(C2C(C(=O)c3ccco3)=C(O)C(=O)N2Cc2ccccc2)ccc1O (centres undefined) : 21.9

Measured activation, "COc1ccc(S(=O)(=O)N2CCc3ccccc32)cc1C(=O)Nc1cc(S(C)(=O)=O)ccc1Cl" : -27.5

Measured activation, O=C(C1=C(O)C(=O)N(Cc2ccccc2)C1c1cccnc1)c1ccco1 (centres undefined) : 66.5

###

- experiment summary: enhancers of HDL lipid transfer via mSR-BI – ldlA[mSR-BI] CHO cells, DiI fluorescence, primary screen (AID 504775);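 further: 0% = median plate neutral-control signal and 100% = twice that signal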
- condition description: DiI-HDL uptake fluorescence, 3 h, at 12.5 µM, 100 = double the neutral-control signal
The whole screen tested about 320,000 compounds, of which about 310 (0.097%) were called active.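 How the source made its calls: active means mean replicate activation of at least 60% and every replicate at or above 60%; inconclusive means mean or all-replicate condition met, but not both; inactive means mean below 60% and not all replicates reaching 60%.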 Shown is part of a subset that was picked to be rich in actives.
Pick one and only one: yes (1) = active, no (0) = inactive

What classification did "COC(=O)Cc1c(-c2[nH]c3ccccc3c2CC(=O)OC)[nH]c2ccccc12" end up with in this test?
no (0)

What classification did "CC(=NNC(=S)N1CCCCCC1)c1ccccn1" end up with in this test?
no (0)

What classification did "C=CC(=O)Nc1ccc(Nc2ccnc(Nc3ccc(N4CCN(C)CC4)cc3)n2)cc1" end up with in this test?
no (0)

What classification did CC(=O)OC1CCC2(C)C(=CCC3C4CC(=O)N(O)C(=O)C4(C)CCC32)C1 (stereo not drawn) end up with in this test?
no (0)

What classification did "Cc1cc(NC(=O)c2cc3ccccc3o2)no1" end up with in this test?
no (0)

What classification did "Cc1nc(N)sc1-c1ccccc1" end up with in this test?
no (0)

What classification did "Cc1ccc(C)c(S(=O)(=O)N(C)c2ccc(OC(=O)C3CCN(C(=O)c4ccc(F)cc4)CC3)cc2)c1" end up with in this test?
no (0)

What classification did "COc1ccc(/C=C/C(=O)OCC(=O)N2CCN(S(=O)(=O)c3ccc(C)cc3C)CC2)cc1OC" end up with in this test?
no (0)

What classification did CC(C)C(c1nnnn1C1CCCCC1)N1CCN(C(=O)c2ccco2)CC1 (stereo not drawn) end up with in this test?
no (0)

What classification did "COc1ccc(CNCCCNCc2ccc(OC)c(OC)c2)cc1OC" end up with in this test?
no (0)

What classification did "COc1ccccc1N(CC(=O)Nc1c(C)n(C)n(-c2ccccc2)c1=O)S(=O)(=O)c1ccccc1" end up with in this test?
no (0)

What classification did "CN1C(c2ccc(F)cc2)=CS/C1=C(/C#N)c1nnc2n1-c1ccccc1SC2" end up with in this test?
no (0)

What classification did "Oc1cccc(CCc2ccccn2)c1" end up with in this test?
no (0)

What classification did "COc1cc(/C=C/c2ccc(/C=C/c3cc(OC)c(OC)c(OC)c3)cc2)cc(OC)c1OC" end up with in this test?
no (0)

What classification did "N=C1c2ccccc2-c2ccccc21" end up with in this test?
no (0)

What classification did "CCCCNCCS(=O)(=O)NCc1ccccc1" end up with in this test?
no (0)

What classification did "Nc1ccc2c(c1)C(=Cc1cccnc1)c1ccccc1-2" end up with in this test?
no (0)

What classification did "CCc1c(Nc2ccccc2C)nc(N)[nH]c1=O" end up with in this test?
no (0)

What classification did "CCc1c(Nc2ccccc2Cl)nc(N)[nH]c1=O" end up with in this test?
no (0)

What classification did CN(CCc1ccccc1)C(=O)c1cccc(NC(=O)Cc2cccc(NC(=O)C3CCCN(C(=O)C4CCC4)C3)c2)c1 (stereo not drawn) end up with in this test?
no (0)

What classification did CCCN(CCC)CC(O)COc1ccccc1C(=O)Nc1ccccc1 (stereo not drawn) end up with in this test?
yes (1)

What classification did "CCCOc1ccccc1C(=O)NCCCC(=O)O" end up with in this test?
no (0)

What classification did CCC(c1nnnn1C1CCCC1)N1CCN(C(=O)c2ccco2)CC1 (stereo not drawn) end up with in this test?
no (0)

###

- experiment summary: enhancers of HDL lipid transfer via mSR-BI – ldlA[mSR-BI] CHO cells, DiI fluorescence, primary screen (AID 504775);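 further: 0% = median plate neutral-control signal and 100% = twice that signal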
- condition description: DiI-HDL uptake fluorescence, 3 h, at 12.5 µM, hits give high values, 100 = double the neutral-control signal
Out of some 320,000 compounds screened, about 310 (0.097%) were called active. The full list was thinned out, with actives kept by preference.
Can you tell me activation for the items I'm about to list?
// units = %; emit number, no label

Measured activation, "C/C(=N\Nc1ccccc1)c1cccs1" : 13.7

Measured activation, "COc1cc(C(=O)CCc2ccc3c(c2)OCO3)cc(OC)c1OC" : -43.2

Measured activation, "NC(=NC(=O)c1ccccc1)N1CCOCC1" : 1.4

Measured activation, "COc1cc(NC(=S)NCc2ccc(S(N)(=O)=O)cc2)cc(OC)c1" : 1.73

Measured activation, O=C1OC(Cc2ccccc2)C(c2ccccc2)C1=O (stereo not drawn) : 5.71

Measured activation, "O=C(NC(=O)N1CCOCC1)c1ccccc1" : 67.4

Measured activation, "c1ccc2[nH]c(NCCN3CCOCC3)nc2c1" : 62.8

Measured activation, "c1ccc2cc3c(NCCN4CCOCC4)ccnc3cc2c1" : 30.5

Measured activation, "O=C(CSC(=S)N1CCOCC1)c1ccccc1" : -13.4

Measured activation, "O=C(NCc1ccccc1)c1cccc(NC(=O)C2CCCCC2)c1" : -0.488

Measured activation, "c1ccc(C(=NNc2nc3ccccc3s2)c2ccccn2)cc1" : -40.5

Measured activation, "Nc1ccc2[nH]c(=S)sc2c1" : -5.72

Measured activation, "NS(=O)(=O)c1ccc(CNC(=S)NC(=O)c2ccco2)cc1" : 304

###

- experiment summary: enhancers of HDL lipid transfer via mSR-BI – ldlA[mSR-BI] CHO cells, DiI fluorescence, primary screen (AID 504775);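 further: 0% = median plate neutral-control signal and 100% = twice that signal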
- condition description: DiI-HDL uptake fluorescence, 3 h, at 12.5 µM, hits give high values, 100 = double the neutral-control signal
Among all 320,000 compounds or so, about 310 (0.097%) were called active. The sample as a whole holds a higher share of actives than the screen did.
assay metric: activation (%)
// units = %; emit number, no label

Measured activation, "Cc1nc2ccc(N)nc2nc1C" : -22.1

Measured activation, "CCCN(CCC)S(=O)(=O)c1cc2c(cc1Br)CCN2C(=O)CC" : -7.1

Measured activation, "O=C(C[C@H]1C[C@H](C(=O)N2CCOCC2)[C@@]2(CCC3CCCC3)c3[nH]c4ccc(Cl)cc4c3CCN2C1=O)NCc1ccco1" : 82.2

Measured activation, "S=C(Nc1ccccc1)Nc1ccc2ccccc2c1" : -9.12

Measured activation, "C[C@@H]1NS(=O)(=O)c2cc(Cl)ccc2O[C@@H]1c1ccccc1" : -33.6

Measured activation, "COc1cc(S(=O)(=O)N2CCN(C(=O)C3CC3)CC2)ccc1NC(C)=O" : 60.7

Measured activation, "CC(=O)CSc1nc(CCc2ccccc2)c(C#N)c(=O)[nH]1" : 11

Measured activation, "CCCCNC1(C#N)CCN(Cc2ccccc2)CC1" : 2.1

Measured activation, CCN(CC)CCCC(C)n1c2nc(=O)[nH]c(=O)c-2nc2cc(Cl)ccc21 (stereo unspecified) : -9.91

Measured activation, "O=C(NN=Cc1ccccc1O)NN=Cc1ccccc1O" : -79.8

Measured activation, "CC1=CC(=NNS(=O)(=O)c2ccc([N+](=O)[O-])cc2)CC(C)(C)C1" : 27.7

Measured activation, "NC(=O)C1CCN(C(=O)c2cc(S(=O)(=O)N3CCN(c4ccccc4)CC3)ccc2Cl)CC1" : 3.45

Measured activation, CC(=O)OCC(=O)C1(O)CCC2C3CC(C)C4=CC(=O)CCC4(C)C3C(O)CC21C (stereo unspecified) : -0.166

Measured activation, "COc1cccc2oc(CCc3ccccc3)cc(=O)c12" : 4.54

Measured activation, O=c1nc(NO)ccn1C1CCCO1 (stereo unspecified) : 15.7

Measured activation, "COc1ccc2c(c1)[C@H]1[C@H](CO2)[C@H](c2ccccc2)[C@]2(C)C(=O)Nc3cc(F)c(F)cc3C(=O)N12" : -10.6

Measured activation, "COc1cc(O)c2c(=O)c3c(O)c(O)ccc3oc2c1OC" : -10.1

Measured activation, "Cc1ccc2c(c1)NC(=O)[C@@]1(C)[C@@H](c3ccccc3)[C@H]3COc4ccc(Cl)cc4[C@@H]3N1C2=O" : 138

Measured activation, COC1=CC(=O)OC(C)(c2ccccc2)C1 (stereo unspecified) : -8.07

Measured activation, "COc1ccc(CNC(=O)C[C@H]2C[C@H](C(=O)N3CCOCC3)[C@@]3(CCC4CCCC4)c4[nH]c5ccc(Cl)cc5c4CCN3C2=O)cc1OC" : -30.3

Measured activation, "NC(=O)C1(Nc2ccc([N+](=O)[O-])cc2)CCCC1" : -13.2

Values from PubChem BioAssay AID504775
